Values from PubChem BioAssay (NCI)

- Test system: XF 498 CNS
- assay.method.text: NCI tumour cell line growth inhibition, 48 h
What TGI was measured for each of the following?

Consider `c1cncc(O[Si](Oc2cccnc2)(Oc2cccnc2)Oc2cccnc2)c1` . Its measured TGI is > 100 µM

According to the records, this molecule CCOC(=O)C1=C(C)N(NC(N)=O)C(C)(O)C12CCOC2=O (configuration not stated) displays TGI of > 100 µM

The reported value for CC1(S)CC2C(CC1Sc1ccccc1)C2(C)C (configuration not stated) in terms of TGI is > 100 µM

// recorded TGI for `O=[N+]([O-])c1cc(Cl)ccc1OCc1ccccc1` : > 100 µM

Reported TGI for `C#CC1(O)c2ccccc2C(=O)c2ccccc21` was > 100 µM

Value of TGI reported for the molecule CC(=O)C(CN(C)C)C(c1ccccc1)c1c(O)c2ccccc2oc1=O (configuration not stated) is > 100 µM

Input CN(C)CC1CCCCCCCCCC(CN(C)C)C1=O (configuration not stated) . Output TGI: > 100 µM

====

- Tested on: KM20L2 colon
- assay.method.text: NCI tumour cell line growth inhibition, 48 h
quantity.kind: TGI

Field TGI (KM20L2 colon), entry C=C1C2CC(OC(C)=O)C3(C)C(c4ccoc4)OC(=O)[C@@H](O)[C@]13OC1C[C@H](OC(C)=O)C(C)(C)[C@H](CC(=O)OC)[C@]12C (stereo partly drawn) : > 100 µM

Response field TGI (KM20L2 colon) for item CC1=C(Cl)C=CP(=O)(OC(C)C)C1 (stereo not drawn) : > 100 µM

Recorded TGI for `COc1ccc2c(c1)[n+]([O-])c(-c1ccc(C)cc1)c(N)[n+]2[O-]` on KM20L2 colon was > 100 µM

====

Provide the reported TGI of each item.
- Tested on: ACHN renal
- assay.method.text: NCI tumour cell line growth inhibition, 48 h

The compound Cc1ccc(C(SCC(N)C(=O)O)(c2ccccc2)c2ccccc2)cc1 (configuration not stated) showed TGI equal to > 100 µM

Field TGI (entry `Oc1cccc(/C=N/Nc2nnc(N/N=C/c3cccc(O)c3)c3ccccc23)c1` ) reads 40.7 µM

Sure, the documented TGI for CC12CO[C@@](C)(CC(S(=O)(=O)c3ccccc3)C1)O2 (some centres not stated) is > 100 µM

get_value(item= `O=[N+]([O-])c1cc(Cl)ccc1OCc1ccccc1` , readout=TGI) returns > 100 µM

Entry `CCOc1ccc(N=NS(=O)(=O)O)cc1` ; TGI = > 100 µM

// recorded TGI for `COC(=O)C1=C(C(=O)OC)SC(=C2S[C@@H]3[C@@H]4C[C@H]([C@@H]3S2)[C@H]2C(=O)OC(=O)[C@@H]42)S1` : > 100 µM

Sure, the documented TGI for COC(=O)C1=CN(C2CCCCC2)C2(c3ccccc3)c3ccccc3C(=O)OC(=O)C12 (configuration not stated) is > 100 µM

Looking up `CCN(CC)c1ccc2cc(-c3nnc(-c4ccccc4O)o3)c(=O)oc2c1` , I found its TGI recorded as 24.2 µM

Query `CCCCCCOc1ccc(C(=O)N(C)O)cc1` yields TGI of 30.3 µM

Input `CN(C)S(=O)(=O)n1cnc(CO)c1` . Output TGI: > 100 µM

Form: compound = `CCCCOCc1cc(CN2CCN(C)CC2)c(O)c2ncccc12` ; TGI = 54.2 µM

Memo: COc1cc(C2C3=C(COC3=O)Nc3c2ccc2c3CCCC2)cc2c1OCO2 (configuration not stated) , reported TGI: > 100 µM

====

- System: MCF7 breast
- assay.method.text: NCI tumour cell line growth inhibition, 48 h
Where a SMILES comes first, the peptide text is derived from it. [ ]: non-standard residue; d: D form. The star is where a group is joined. ξ: configuration not given here. ξF = NC(Cc1ccccc1)C(=O)O; Cbz = O=C(OCc1ccccc1)*; Aib = CC(C)(N)C(=O)O
quantity.kind: TGI

Short answer for COC(=O)C(C)(C)NC(=O)C(Cc1ccccc1)NC(=O)C(C)(C)NC(=O)OCc1ccccc1 (stereo not given) (Cbz-[Aib]-[ξF]-[Aib]-OMe) : TGI was > 100 µM

Entry under test: `COc1cc(Nc2nnc3n2S(=O)(=O)c2cc(C)c(Cl)cc2S3)cc(OC)c1` . Its TGI was > 100 µM

// TGI value for `O=C1Nc2ccccc2/C1=C\c1nc(C2CCN(S(=O)(=O)c3ccc(F)cc3)CC2)n2ccccc12` : > 100 µM

// sample COC1C(OC(=O)/C=C/C=C/C=C/C=C\C(=O)O)CCC2(CO2)C1C1(C)OC1CC=C(C)C (stereo not given) , its TGI was > 200 µM

Entry Cc1ccc(C2=Nc3c(N)ncnc3NC(c3ccc4c(c3)OCO4)C2)cc1 (stereo not given) — recorded TGI = > 100 µM

====

- System: UACC-257 melanoma
- assay.method.text: NCI tumour cell line growth inhibition, 48 h
Exercise: state measured TGI for each of the molecules provided.

Form: molecule = COc1ccc(N=Nc2c(C)c(C#N)c(=S)n(C3OC(CO)C(O)C(O)C3O)c2C)cc1 (stereo not given) ; TGI = > 100 µM

Given item `COc1cc(N2CCN(C(C)C)CC2)ccc1Nc1nc(Nc2cccc(F)c2C(=O)O)c2cc[nH]c2n1` , the value recorded as its TGI is > 25 µM

GET /value?item= CC1C[C@]2(C[C@@H](C)C(=O)O2)O[C@@H]2CC3(C)[C@@H]4CCC5C(C)(C)OC(=O)C[C@H]6OO[C@]4(CC[C@]3(C)C12)CC56O (stereo not given in full) &field=TGI returns > 100 µM

In plain terms, `CC(C)(C)OC/C=C1\C(=O)O[C@H]2C[C@@H](O[Si](C)(C)C(C)(C)C)C[C@@H]12` has a documented TGI of > 100 µM

Record `O=S1(=O)CCCS(=O)(=O)C(c2ccccc2)=C1c1ccccc1` , field TGI: > 100 µM

====

- Tested on: SR leukemia
- assay.method.text: NCI tumour cell line growth inhibition, 48 h
quantity.kind: TGI

Quick note, TGI for CCCCN[C@H]1C2C3CC4C5CC(C42)C1(C)C53 (stereo not given in full) landed at > 100 µM

Reported TGI ( `OCCNCCCOc1ccc2ncnc(Nc3ccc(Oc4cccc(C(F)(F)F)c4)c(Cl)c3)c2c1` ) = 4.65 µM

Lab note: measured TGI of `N#Cc1nc(-c2ccccn2)oc1N` was > 100 µM

Quick note, TGI for `CNS(=O)(=O)NN(C)S(=O)(=O)c1ccc2ccccc2c1` landed at > 100 µM

TGI for `COc1ccc2c(Cl)cc(NC(=O)Nc3c(C)cccc3C)nc2c1` is > 100 µM

====

Can you tell me TGI for the items I'm about to list?
- System: MALME-3M melanoma
- assay.method.text: NCI tumour cell line growth inhibition, 48 h

According to the records, this compound `CC(C)(CCCCC(C)(C)C1NC(=O)N1)C1NC(=O)N1` displays TGI of > 10 µM

GET /value?item= `O=C(CCCl)NNC1=NCCCCN1` &field=TGI returns > 100 µM

Field TGI (entry `O=C1c2ccccc2CC12Cc1ccccc1C2` ) reads > 100 µM

# compound `Cc1ccc(-c2cc(=O)c3cc(C)c(C)c(C(=O)O)c3o2)cc1N` ; its TGI = > 100 µM

Sure, the documented TGI for `N#Cc1nc(-c2ccccn2)oc1N` is > 100 µM

====

- Tested on: SK-OV-3 ovarian
- assay.method.text: NCI tumour cell line growth inhibition, 48 h; in the data active = GI50 below about 0.43 µM; inactive = the rest
In this exercise, the only acceptable responses are active, inactive

What outcome does the record of this test show for Cc1ccc(C(SCC(N)C(=O)O)(c2ccccc2)c2ccccc2)cc1 (stereo not given) ?
active

Status in this test for `N=C(N)c1ccc(NCCOCCNc2ccc(C(=N)N)cc2)cc1` ?
inactive

What was the test verdict on `CC(=O)[CH-]C(=O)c1ccccc1.CC(=O)[CH-]C(=O)c1ccccc1.Cl.[O-]c1ccccn1.[O-]c1ccccn1.[Ti+4]` ?
inactive

Entry `CCCCNC(=O)Oc1ccc(/C(=C(/C)Cc2ccc(OC)cc2)c2ccc(OCCN3CCCC3)cc2)cc1` : call = ?
inactive

Record lookup: outcome of this test for `CCCCc1n(Cc2ccc3ccccc3c2)cc[n+]1Cc1ccc2ccccc2c1` ?
inactive

====

Record form. Attribute: TGI. Fill in for each entry.
- Test system: HS 578T breast
- assay.method.text: NCI tumour cell line growth inhibition, 48 h

Bench note, HS 578T breast: entry `CCCCCCCCCCCCOc1ccc(/C=C/C2=[N+](CCCl)CCO2)cc1` , its TGI = > 100 µM

Record `CCOc1ccc(N=NS(=O)(=O)O)cc1` / HS 578T breast, TGI recorded as > 100 µM

Test item `CCCCCCOc1ccc(C(=O)N(C)O)cc1` ; HS 578T breast; reported TGI was > 100 µM

Measured on HS 578T breast, `CCCCC(=O)N/N=C/c1c(O)ccc2ccccc12` has a documented TGI of > 100 µM

Entry `CN(C)c1ccc(-c2ccc(N(C)C)c3n[se]nc23)c2n[se]nc12` ; assay system HS 578T breast; TGI recorded at > 100 µM

Value (TGI, HS 578T breast) for record `N#Cc1c(O)c(N=Nc2ccc(Cl)cc2)c(=O)n2c1[nH]c1ccccc12` = > 100 µM

Reported HS 578T breast TGI for item `COc1ccc(/C=C2\Sc3nnc(CNc4ccc(Cl)cc4)n3N=C2c2cc(F)c(Cl)cc2Cl)cc1OC` was > 100 µM
